Would you kindly list O.D. 490/630 at 0.015625 µg/mL for each of these binders?
Target: T1, full-length recombinant human PAD4 (human, UniProt Q9UM07 1-663)
T1 construct: Full-length recombinant; also called peptidylarginine deiminase 4
T1 sequence (Q9UM07 whole entry): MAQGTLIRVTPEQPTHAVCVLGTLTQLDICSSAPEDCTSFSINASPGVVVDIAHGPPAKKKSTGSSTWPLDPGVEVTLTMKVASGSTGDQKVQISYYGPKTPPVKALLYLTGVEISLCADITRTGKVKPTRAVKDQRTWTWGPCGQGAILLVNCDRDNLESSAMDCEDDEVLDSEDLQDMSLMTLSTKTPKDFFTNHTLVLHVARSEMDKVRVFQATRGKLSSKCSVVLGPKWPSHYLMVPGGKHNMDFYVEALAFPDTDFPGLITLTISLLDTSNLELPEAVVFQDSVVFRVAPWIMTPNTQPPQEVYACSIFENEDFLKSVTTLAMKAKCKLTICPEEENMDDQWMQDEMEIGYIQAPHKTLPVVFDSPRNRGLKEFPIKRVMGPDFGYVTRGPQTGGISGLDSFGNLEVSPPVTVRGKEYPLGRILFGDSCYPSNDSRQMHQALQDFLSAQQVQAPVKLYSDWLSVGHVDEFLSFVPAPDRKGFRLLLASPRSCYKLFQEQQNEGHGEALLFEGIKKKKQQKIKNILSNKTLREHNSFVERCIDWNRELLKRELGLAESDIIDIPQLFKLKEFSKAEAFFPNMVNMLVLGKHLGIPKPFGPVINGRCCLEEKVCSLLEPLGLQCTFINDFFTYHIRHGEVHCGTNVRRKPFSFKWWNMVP
Assay: ELISA, immobilized human PAD4
Write the number on its own, no unit after it.

Output O.D. 490/630 at 0.015625 µg/mL of humanized anti-PAD4 antibody derived from H7, VH H4.32 / VL L4.15 (antibody, IgG1, V domains shown, IgG1 kappa; also called H7 H4.32/L4.15) VH: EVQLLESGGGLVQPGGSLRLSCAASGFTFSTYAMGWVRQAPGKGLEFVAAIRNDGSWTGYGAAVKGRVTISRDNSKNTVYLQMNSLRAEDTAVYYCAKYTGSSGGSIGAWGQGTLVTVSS VL: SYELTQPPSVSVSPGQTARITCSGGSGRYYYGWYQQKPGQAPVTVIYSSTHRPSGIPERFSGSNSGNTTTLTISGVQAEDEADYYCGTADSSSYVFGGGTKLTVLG
1.77

Output O.D. 490/630 at 0.015625 µg/mL of humanized anti-PAD4 antibody derived from G8, VH H4.15 / VL L4.06 (antibody, human IgG1, kappa, V domains shown, IgG1 kappa; also called G8 H4.15/L4.06) VH: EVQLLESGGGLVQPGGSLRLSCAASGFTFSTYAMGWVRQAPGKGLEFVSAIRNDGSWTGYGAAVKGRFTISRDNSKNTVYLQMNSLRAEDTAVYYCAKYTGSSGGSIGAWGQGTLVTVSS VL: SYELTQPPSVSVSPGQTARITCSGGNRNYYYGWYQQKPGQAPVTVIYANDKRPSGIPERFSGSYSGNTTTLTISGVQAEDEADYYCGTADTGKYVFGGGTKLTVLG
1.68

Output O.D. 490/630 at 0.015625 µg/mL of humanized anti-PAD4 antibody derived from H7, VH H4.15 / VL L4.15 (antibody, IgG1, V domains shown, IgG1 kappa; also called H7 H4.15/L4.15) VH: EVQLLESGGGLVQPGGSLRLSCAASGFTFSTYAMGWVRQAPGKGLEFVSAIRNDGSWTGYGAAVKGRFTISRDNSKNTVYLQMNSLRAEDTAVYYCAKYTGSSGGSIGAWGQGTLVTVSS VL: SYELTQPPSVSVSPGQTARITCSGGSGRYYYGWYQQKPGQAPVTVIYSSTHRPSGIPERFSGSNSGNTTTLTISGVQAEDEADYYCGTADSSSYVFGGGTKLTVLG
1.65

Cited source: patent US20180044434A1
